Target: Beta-3 adrenergic receptor (Homo sapiens, UniProt P13945)
Sequence (P13945 whole entry, looked up): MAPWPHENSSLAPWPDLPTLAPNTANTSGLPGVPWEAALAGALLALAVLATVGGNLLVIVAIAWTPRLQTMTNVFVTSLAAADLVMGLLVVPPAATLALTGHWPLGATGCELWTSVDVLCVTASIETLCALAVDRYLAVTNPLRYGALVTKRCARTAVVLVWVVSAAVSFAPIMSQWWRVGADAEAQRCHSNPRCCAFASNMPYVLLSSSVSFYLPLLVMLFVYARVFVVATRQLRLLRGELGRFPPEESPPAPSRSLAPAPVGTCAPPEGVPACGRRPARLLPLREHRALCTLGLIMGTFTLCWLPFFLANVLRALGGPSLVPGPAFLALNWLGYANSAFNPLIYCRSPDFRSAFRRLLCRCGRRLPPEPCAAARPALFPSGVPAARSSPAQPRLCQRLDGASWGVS
Experiment: Agonist activity at human beta-3 adrenergic receptor expressed in CHO cells assessed as cAMP levels at 100 nM relative to isoproterenol
Format: functional, cell-based
EXPERIMENTAL READOUT: Activity (%)

Reference set (4 entries):
| COMPOUND | Activity, % |
| --- | --- |
| CC(Cc1ccc(Oc2ccc(C#N)cn2)cc1)NC[C@H](O)COc1cccc2c1[nH]c(=O)n2C (stereo partly specified) | 29 |
| CC(Cc1ccc(Oc2ccc(C(N)=O)cn2)cc1)NC[C@H](O)COc1cccc2c1[nH]c(=O)n2C (stereo partly specified) | 33 |
| CC(Cc1ccc(Oc2ccc(C(N)=O)cn2)cc1)NC[C@H](O)COc1cccc2c1n(C)c(=O)n2C (stereo partly specified) | 25 |
| CC(Cc1ccc(Oc2ccc(C(=O)O)cc2)cc1)NC[C@H](O)COc1cccc2c1[nH]c(=O)n2C (stereo partly specified) | 30 |

a. CC(Cc1ccc(Oc2ccc(C(=O)O)cc2)cc1)NC[C@H](O)COc1cccc2c1n(C)c(=O)n2C (stereo partly specified)
b. CC(Cc1ccc(Oc2ccc(C#N)cn2)cc1)NC[C@H](O)COc1cccc2c1n(C)c(=O)n2C (stereo partly specified)
Which of the two gives a bigger number for Activity: a or b ? Refer to your chosen item by its label in the answer. a
